- experimental details: Cytotoxicity against human MRC5 cells assessed as cell viability at 10 uM after 48 hrs by inverted microscopy
- Type: cell-based
- settings: read-out: Activity
quantity: viability at 48 h, 10 µM (%)
Write down the numeric answer in % and omit the unit.

## Task Give viability at 48 h, 10 µM for `CCCC[S@@+]([O-])CCCCN=C=S`
## Result 90

----------
- subject of test: Nuclear factor erythroid 2-related factor 2 (Homo sapiens) (UniProt Q16236)
- Sequence (Q16236 whole entry): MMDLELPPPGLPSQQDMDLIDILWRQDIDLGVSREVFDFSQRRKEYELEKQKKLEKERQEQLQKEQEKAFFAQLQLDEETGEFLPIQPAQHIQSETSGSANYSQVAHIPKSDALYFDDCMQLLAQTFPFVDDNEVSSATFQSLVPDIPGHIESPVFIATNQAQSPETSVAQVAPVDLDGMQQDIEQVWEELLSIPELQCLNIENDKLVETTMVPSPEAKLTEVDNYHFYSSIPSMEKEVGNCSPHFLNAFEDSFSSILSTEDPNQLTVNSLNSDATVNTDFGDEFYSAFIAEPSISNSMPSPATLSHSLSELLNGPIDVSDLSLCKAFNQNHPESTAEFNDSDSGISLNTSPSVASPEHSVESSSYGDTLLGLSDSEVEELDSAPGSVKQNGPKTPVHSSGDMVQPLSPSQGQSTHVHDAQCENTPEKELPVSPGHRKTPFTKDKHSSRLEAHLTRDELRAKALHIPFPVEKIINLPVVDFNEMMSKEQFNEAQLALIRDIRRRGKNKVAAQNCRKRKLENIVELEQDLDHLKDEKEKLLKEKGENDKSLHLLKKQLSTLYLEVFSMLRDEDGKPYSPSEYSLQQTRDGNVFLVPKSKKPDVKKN
- experimental details: Activation of NRF2 in human HaCaT cells expressing rat NQO1 assessed as induction of NQO1 expression at 50 nM to 5 uM incubated for 24 hrs by ARE-driven luciferase reporter gene assay
- Format: cell-based
Activity calls are given as the source filed them. The calls are words filed in the database; no cut-off is given here.
quantity: Activity

The following compounds have reported results that may help.
[[record]]
compound = "C[S@+]([O-])CCCCCN=C=S"
quantity = "Activity"
experimental_result = "Active"

[[record]]
compound = "CCCC[S@@+]([O-])CCCCN=C=S"
quantity = "Activity"
experimental_result = "Active"

[[record]]
compound = "C[S@+]([O-])CCCCCCN=C=S"
quantity = "Activity"
experimental_result = "Active"

[[record]]
compound = "C[S@@+]([O-])CCCCCCN=C=S"
quantity = "Activity"
experimental_result = "Active"


## Task Give Activity for CC[S@@+]([O-])CCCCN=C=S (racemic)
## Result Active

## Task Give Activity for `C[S@@+]([O-])CCCCCN=C=S`
## Result Active

## Task Give Activity for `C[S@@](=O)CCCCN=C=S`
## Result Active
